# experimental_target: CHEK2 (human)
# test_description: radiometric filter-binding kinase assay
# test_context: compound 1.0 µM
Rule: measured residual activity below 80% gets Yes; anything equal to or greater than 80% gets No.

Some entries whose results are on file:
{"chemical_string": "Cc1ccc(-c2ccc3c(ccc4sc5c(c43)NC[C@@H](C)NC5=O)n2)cn1", "group": "Yes"}
{"chemical_string": "Cc1cccc(Nc2nn(C)c3ncnc(N)c23)c1", "group": "No"}

**Q:** Given the entry `O=C(O)c1cc(N=Nc2ccc(S(=O)(=O)Nc3ccccn3)cc2)ccc1O` , would its reported residual activity be below 80%?
**A:** No

**Q:** Given the entry `O=C(Nc1ccccc1-c1cn2c(CN3CCNCC3)csc2n1)c1cnc2ccccc2n1` , would its reported residual activity be below 80%?
**A:** No

**Q:** Given the entry `O=C(O)c1ccc(-c2c[nH]c3ncc(-c4ccccc4)cc23)cc1C1CCCC1` , would its reported residual activity be below 80%?
**A:** Yes

**Q:** Given the entry `O=C(NOC[C@H](O)CO)c1ccc(F)c(F)c1Nc1ccc(I)cc1Cl` , would its reported residual activity be below 80%?
**A:** No

**Q:** Given the entry `CN(C)C/C=C/C(=O)Nc1cccc(C(=O)Nc2ccc(Nc3nccc(-c4cccnc4)n3)cc2)c1` , would its reported residual activity be below 80%?
**A:** Yes
